# assayed.system: H-ficolin (human, UniProt O75636 24-299)
# Sequence (O75636 24-299): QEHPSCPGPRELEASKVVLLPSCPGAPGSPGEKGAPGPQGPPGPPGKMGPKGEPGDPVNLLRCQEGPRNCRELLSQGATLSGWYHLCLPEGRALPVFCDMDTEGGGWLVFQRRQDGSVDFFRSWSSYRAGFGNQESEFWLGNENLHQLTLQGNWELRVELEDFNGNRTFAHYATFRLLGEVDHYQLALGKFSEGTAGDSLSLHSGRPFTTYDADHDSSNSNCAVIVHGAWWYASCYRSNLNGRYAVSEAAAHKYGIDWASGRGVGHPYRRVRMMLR
# procedure.summary: SPR
As shown below, each of these binders has a reported Kd value.

- binder: "DTLMISRTPEVTCVV [nIgG peptide DTLMISRTPEVTCVV 278-292 (peptide 1)]"
  reported.value: "~1000 nM"

Now take the following binder into account.
Q: Consider the binder LTCLVKGFYPSDI [nIgG peptide LTCLVKGFYPSDI 394-406 (peptide 6)] and give its measured Kd.
Ans: ~1000 nM
